# EC50 per record follows
Test system: THP-1 viability, CellTiter-Glo luminescence, 72 h
Assay: PubChem AID 2252

compound	observed_value
N=c1n(CCN2CCCCC2)c2ccccc2n1CC(=O)c1ccc(Cl)c(Cl)c1	20.4 µM
O=C(NC(=C(Cl)Cl)S(=O)(=O)c1ccc(Cl)cc1)c1ccccc1	23.2 µM
N=c1c2c(n(Cc3ccc(Cl)c(Cl)c3)c3c1CCC3)CCCC2	4.66 µM

Find the recorded EC50 belonging to CC1=C([N+](=O)[O-])C(c2cccc(Br)c2)C2=C(N1)c1ccccc1C2=O (stereo not given) and report it.
3.1 µM

What would you report for COc1cc2c3cc1Oc1cc(ccc1O)C[C@@H]1c4c(cc(OC)c(O)c4Oc4ccc(cc4)C[C@H]3N(C)CC2)CCN1C ?
8.8 µM

====

A collection of compounds and their measured pEC50
Tested on: THP-1 viability, CellTiter-Glo luminescence, 72 h
Assay: PubChem AID 2252
The value called pEC50 is obtained by taking minus log10 of the concentration in mol/L.

Which pEC50 is listed for Cc1nc2ccccc2nc1N/N=C/c1ccc(O)cc1O ?
5.44

Also Brc1ccc2c(c1)CN1CCCC1=N2 ?
4.54

Queued: C=CCN(c1ccccc1)S(=O)(=O)c1cccc2cccnc12
4.31

Field entry: COC(=O)c1ccc(Cn2c(O)c(N=NC(N)=S)c3ccccc32)o1
4.90

Can you handle N=c1n(CCN2CCCCC2)c2ccccc2n1CC(O)COc1ccccc1 (centres undefined) next?
4.54

====

Recorded EC50 by entry
Tested on: THP-1 viability, CellTiter-Glo luminescence, 72 h
Experiment: PubChem AID 2252

Worked cases, EC50 given:
> print(dat)
                                   molecule  observed.value
1  C[C@H]1c2cccc(O)c2C(O)=C2C(=O)[C@]3(O)C(O)=C(C(N)=O)C(=O)[C@@H](N(C)C)C3[C@@H](O)C21 (stereo partly drawn)         27.5 µM
2           Cc1nonc1C(=O)N/N=C/c1ccc(O)cc1O         8.05 µM
3            Cc1cc(=O)[nH]c(-n2nc(C)cc2C)n1         27.8 µM

What does the data say about its EC50? Entry: Cc1nn(Cc2ccccc2Cl)c2sc(C(=O)Nc3ccccc3N3CCOCC3)cc12
20.4 µM

Same question for CC(C)[C@@H]1CC[C@@H](C)C[C@H]1OC(=O)C[n+]1cc(-c2ccc(Cl)cc2)n2c1CCCCC2 please.
2.19 µM

Continue with CC(Nc1nc(N2CCCC2)nc2ccccc12)c1ccccc1 (stereo not drawn)
9.31 µM

Let us now turn to Cc1ccc(-c2ccccc2NC(=O)CS(=O)CC(=O)Nc2ccc(C)c(Cl)c2)o1 (stereo not drawn)
32.2 µM

Lookup CCOc1ccc(Nc2nc(NCC3CCCO3)c3ccccc3n2)cc1 (stereo not drawn)
2.28 µM

====

Test system: THP-1 viability, CellTiter-Glo luminescence, 72 h
Assay: PubChem AID 2252
pEC50: −log10 of the molar value.
Documented pEC50 across a set of molecules

Check out these entries, answers already filled in.
> print(dat)
                                   molecule                                 tested.on  metric.name  observed.value
1           Nc1nc2ccccc2n1Cc1ccc(Cl)c(Cl)c1  THP-1 viability, CellTiter-Glo luminescence, 72 h        pEC50            4.50
2  CCCCCCCCCCOC(=O)Cn1c(COc2ccc(Cl)cc2)[n+](C)c2ccccc21  THP-1 viability, CellTiter-Glo luminescence, 72 h        pEC50            5.72
3               Oc1ccc(Cl)cc1Cc1cc(Cl)ccc1O  THP-1 viability, CellTiter-Glo luminescence, 72 h        pEC50            4.71
4  NC1=NC[C@H](Cc2ccc(O)cc2)N1CCC12CC3CC(CC(C3)C1)C2  THP-1 viability, CellTiter-Glo luminescence, 72 h        pEC50            4.88
5                 O/N=C/C1=C(Cl)c2ccccc2CC1  THP-1 viability, CellTiter-Glo luminescence, 72 h        pEC50          > 7.00

Look up pEC50: Nc1c2ccccc2nc2ccccc12
5.32

Thanks! And Cc1ccc2c(c1)c1c(n2CC(O)CNC2CCCCC2)CCCC1 (stereo not drawn) ?
5.11

CC(NCC(O)COCCC12CC3CC(CC(C3)C1)C2)c1ccccc1 (stereo not drawn) ?
5.01

Same lookup for CN1CCN(C2=Cc3ccccc3Sc3cc(F)c(Cl)cc32)CC1 , please.
4.74

Request: CCN(CC)CCn1c(=N)n(CC(O)COc2cccc(C)c2)c2ccccc21 (stereo not drawn)
4.79

Okay, and COc1ccc(C(=O)NNC(=S)NC(=O)c2ccccc2)cc1 ?
5.17

Item: Cc1cc(=O)oc2ccc(OCC(=O)N3CCC(C)CC3)cc12
> 7.00

// next record Cc1cc2oc(=O)cc(CN3CCN(C/C=C/c4ccccc4)CC3)c2cc1O
4.73

====

Tested on: THP-1 viability, CellTiter-Glo luminescence, 72 h
Experiment: PubChem AID 2252
pEC50: −log10 of the molar value.
Catalogue of molecules with associated pEC50

Record excerpt, results attached:
molecule	pEC50
CC(=O)NC(c1cccs1)c1cc([N+](=O)[O-])c2cccnc2c1O (stereo not drawn)	4.98
O=C(NC(=S)NNC(=O)c1cccs1)c1ccco1	4.79
CCCSc1nc2cc(OC)c(OC)cc2c(=N)n1CCCN1CCOCC1	4.34
CNCC[C@H](Oc1cccc2ccccc12)c1cccs1	4.74
COc1cc(/C=N/NC(=O)c2cncc(Br)c2)cc([N+](=O)[O-])c1O	4.42

Given c1ccc(Nc2ccnc(Nc3ccccc3)n2)cc1 , state its recorded pEC50.
4.38

// query: COc1ccc2nc(N(CCN(C)C)C(=O)/C=C/c3cccs3)sc2c1
4.79

Also Cc1ccccc1-n1ncc2c([N+](=O)[O-])cc([N+](=O)[O-])cc21 , if possible.
4.57

====

# EC50 listing for each entry below
Tested on: THP-1 viability, CellTiter-Glo luminescence, 72 h
Assay: PubChem AID 2252

Can you share its EC50? I mean this molecule: Cc1ccc2cc(CN(CCN(C)C)C(=O)Nc3ccc(Cl)cc3)c(=O)[nH]c2c1
19.1 µM

Same question for Cc1cccc(/C(N)=N/OC(=O)N2CCOCC2)c1 please.
8.03 µM

Similarly, Cc1ccc(C(=O)NNC(=S)NC(=O)c2ccccc2)cc1 ?
8.09 µM

Cool, now CCCCOc1ccc(Br)cc1CSC(=N)N
5.93 µM

====

Tested on: THP-1 viability, CellTiter-Glo luminescence, 72 h
Test: PubChem AID 2252
metric_name: EC50

compound	metric_name	observed_value
CCCCCCCSc1cc(OC)c(CCNC)cc1OC	EC50	10.2 µM
COCCCNC(=S)NNC(=O)c1ccccn1	EC50	38 µM
COc1ccc(/C=N/Nc2cc(C)nc3ccccc23)cc1	EC50	7.03 µM
Cc1ccc(C)c(NC(=O)CCC(=O)N/N=C/c2cc([N+](=O)[O-])ccc2O)c1	EC50	17.9 µM
O=C(N/N=C\c1ccc(Cl)s1)c1cccs1	EC50	32.7 µM
CCN(CC)CCCCCCCCOC(=O)c1cc(OC)c(OC)c(OC)c1	EC50	47.9 µM

Give recorded EC50 with THP-1 viability, CellTiter-Glo luminescence, 72 h for the following compound: N/C(=N\N=C/c1ccc(F)cc1)N/N=C\c1ccc(F)cc1
19 µM

Okay, and C#CCOCCOCCOCCNc1nc(N2CCN(C(=O)CCCCCCCCCCNC(=O)[C@H](CCCCN)n3cc(C[C@@H](C)CC)nn3)CC2)nc(N2CCN(C(=O)CCCCCCCCCCNC(=O)[C@@H]([C@H](C)O)n3cc(C)nn3)CC2)n1 ?
6.17 µM

Next record, please: Cn1cnc2cc(NC(=O)c3cccs3)ccc21
< 0.1 µM

Also, Fc1ccc(/C=N/Nc2nc3ccccc3[nH]2)cc1F please.
42.8 µM

And then CC1CCC(C(C)C)C(OC(=O)Cn2c(-c3ccc(Br)cc3)[n+](C)c3ccccc32)C1 (stereo unspecified) , what is it?
2.16 µM

What do we get for NC(=O)c1ccsc1NC(=O)c1ccc2c(c1)CCCC2 ?
40.4 µM

====

Attribute: pEC50
System: THP-1 viability, CellTiter-Glo luminescence, 72 h
Test: PubChem AID 2252
pEC50: −log10 of the molar value.

For orientation, consider the following solved cases.
molecule	metric_name	observed_value
Clc1cccc(CN2CCc3c([nH]c4ccccc34)C2)c1Cl	pEC50	5.05
O=Nc1ccc(O)c2ncccc12	pEC50	5.68
O=C(NC1CCCCC1)c1ccc([N+](=O)[O-])o1	pEC50	5.02

Any idea what its pEC50 is? The molecule is COc1ccc(/C=N/Nc2cc(C)nc3c(C)cccc23)cc1
5.25

Okay, and C#CCOCCOCCOCCNc1nc(N2CCN(C(=O)CCCCCCCCCCNC(=O)[C@H]([C@@H](C)CC)n3cc(CCCCN=C(N)N)nn3)CC2)nc(N2CCN(C(=O)CCCCCCCCCCNC(=O)[C@H](CCCCN)n3cc(C)nn3)CC2)n1 ?
5.45

Quick one: CC(C)CCC(CCNCc1ccccn1)c1ccc(Cl)cc1 (stereo not drawn)
4.79

Similarly, CN(C)CCCNc1c2ccccc2nc2ccccc12 ?
5.46

Also, N=C1c2ccccc2CN1c1ncccn1 please.
> 7.00

Try O=[N+]([O-])c1ccc(O)c2ncccc12 next.
5.22

Then this molecule: CCCCCCCCn1ccc(=N)cc1
5.26

Then COc1cccc(/C=N/NC(=O)C(=O)N2CCCC2)c1O ?
4.40

Repeat for the following molecule: O=C(CNC(=O)c1cccc(F)c1)N/N=C/c1ccc([N+](=O)[O-])s1
4.59

Could you do the same for CC(C)(C)c1ccc(OCCNC(=S)Nc2ccccc2)cc1 , please?
4.80

Another: Cc1c(CN(C)C)c2c(n1Cc1ccccc1)C(=O)c1ccc(Br)cc1-2
4.68

Repeat for the following molecule: Cc1ccc(Nc2nc(N)c3ccccc3n2)cc1Cl
4.86

Please give the result for CN(C)CC/C=C1/c2ccccc2Sc2ccc(Cl)cc21 too.
5.00

Can you check CCN(CC)CCOC(=O)c1ccc(N/C=C(/C#N)c2nc(-c3ccc(OC)c(OC)c3)cs2)cc1 next?
4.87

Note, next up: Cc1ccc(-c2c[n+](Cc3ccc(Cl)c(Cl)c3)c3n2CCC3)cc1
5.36
